Test system: LXRb:RXRa (NR concentration 270 nM, RXRa partner concentration 90 nM)
Test Description: PBM binding z-score (relative to random genomic background probes); higher = stronger binding; sequences stand for … in GC…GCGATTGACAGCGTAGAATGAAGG
Assay Metric: PBM binding z-score

Seq | Assay Metric | Reported
CCTTACGGGTCACGAGGTTATAGTACGACGAGCG | PBM binding z-score | 4.06
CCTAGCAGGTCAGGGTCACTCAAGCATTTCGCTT | PBM binding z-score | 3.41
CGTCCAAGGTAAGCAGGTCAGTGAAAGCGACGTG | PBM binding z-score | 0.018
CAAACTAGGTCAAGAGATCAAAGTCCGCTTCCCG | PBM binding z-score | 1.95
ACAGACAGGTGATGTAGGTAACTCAGGCTATCAT | PBM binding z-score | -0.28
CAAACTAGGTCCCGAAAGGTCAAAGTCGAATGAC | PBM binding z-score | 5.44
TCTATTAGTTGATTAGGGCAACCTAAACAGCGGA | PBM binding z-score | 0.595
CAAACTAGGTCACCGGAAGGTAAAAGTCCGCATG | PBM binding z-score | 2.66
CAAACTAGGTCACAGAGGTCAATGTCCGTGCGTA | PBM binding z-score | 6.14
ATATGTACGTTACATCCGGGTCATTCAGGCTATG | PBM binding z-score | 2.44
ACAGACAGGTGAGTGAACGTAACTCAGCTGGACG | PBM binding z-score | -0.436
GGAACGAGGGCAAAGTTGAAAGCATCTGTCGACG | PBM binding z-score | 1.26

----------
Test system: LXRb:RXRa (NR concentration 270 nM, RXRa partner concentration 90 nM)
Test Description: PBM binding z-score (relative to random genomic background probes); higher = stronger binding; sequences stand for … in GC…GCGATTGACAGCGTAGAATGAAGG
sequences and their reported PBM binding z-score
Assay Metric: PBM binding z-score

Seq | Experimental System | Assay Metric | Reported
ATCGAAAGGTCGTGAGGTGCGTATACAGAAAGGC | LXRb:RXRa (NR concentration 270 nM, RXRa partner concentration 90 nM) | PBM binding z-score | 2.99
AATACAGGGTCACTAGGCCAGATTAGGTACGAAT | LXRb:RXRa (NR concentration 270 nM, RXRa partner concentration 90 nM) | PBM binding z-score | 4.11
GTACCAAGGTGACTAGGTCGTTGATGAGTAGGCG | LXRb:RXRa (NR concentration 270 nM, RXRa partner concentration 90 nM) | PBM binding z-score | -0.125
GTTTGTAGATCAAGGTTAAGAAAGACTAAGCTAA | LXRb:RXRa (NR concentration 270 nM, RXRa partner concentration 90 nM) | PBM binding z-score | 0.954
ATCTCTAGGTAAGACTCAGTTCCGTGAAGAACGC | LXRb:RXRa (NR concentration 270 nM, RXRa partner concentration 90 nM) | PBM binding z-score | 0.111
CGAACTAGGTCAAGAACAGTGAATCTCCGCACGC | LXRb:RXRa (NR concentration 270 nM, RXRa partner concentration 90 nM) | PBM binding z-score | 1.35
CCGACTGGGACAGAAAGGTTACCATACCATCCGG | LXRb:RXRa (NR concentration 270 nM, RXRa partner concentration 90 nM) | PBM binding z-score | 0.512
AGAACGAGGGCAATGAGTTGAGAGCACGGGTGGC | LXRb:RXRa (NR concentration 270 nM, RXRa partner concentration 90 nM) | PBM binding z-score | -0.251
TCTTGTAGATCAACAGGCGGTTAAGAAAGATCGA | LXRb:RXRa (NR concentration 270 nM, RXRa partner concentration 90 nM) | PBM binding z-score | 0.205
TAGCCTAGGTCATGCGAGCCAGTATAGTGTCGGC | LXRb:RXRa (NR concentration 270 nM, RXRa partner concentration 90 nM) | PBM binding z-score | 1.8
CTACCCAGGTGAACAAGGTCGTTGATTACTATTC | LXRb:RXRa (NR concentration 270 nM, RXRa partner concentration 90 nM) | PBM binding z-score | 1.4
TCTTGTAGAGCAAAGGTTAAGAAAGCCGAAGCCT | LXRb:RXRa (NR concentration 270 nM, RXRa partner concentration 90 nM) | PBM binding z-score | 1.4

Ref: the supplement of paper PMC6555819
